Assignment: determine reported pKd for the given binders.
Target: T1, RBBP5 WD40 propeller (residues 2–333) (human, UniProt Q15291 2-333)
T1 chain: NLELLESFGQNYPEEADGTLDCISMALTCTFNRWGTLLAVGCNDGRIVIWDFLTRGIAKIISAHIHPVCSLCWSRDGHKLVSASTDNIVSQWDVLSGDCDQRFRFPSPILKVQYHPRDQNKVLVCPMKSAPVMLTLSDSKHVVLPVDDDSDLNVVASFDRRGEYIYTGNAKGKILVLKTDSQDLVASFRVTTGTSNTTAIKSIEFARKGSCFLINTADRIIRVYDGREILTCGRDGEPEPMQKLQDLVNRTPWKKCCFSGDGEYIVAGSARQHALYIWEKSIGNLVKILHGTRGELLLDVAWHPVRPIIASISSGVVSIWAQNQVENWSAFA
Assay: ITC
Please treat pKd as minus the base-10 logarithm of the molar concentration.

Fill in pKd for record RBBP5 381-480 (protein) DPIAAFCSSDEELEDSKALLYLPIAPEVEDPEENPYGPPPDAVQTSLMDEGASSEKKRQSSADGSQPPKKKPKTTNIELQGVPNDEVHPLLGVKGDGKSK 5.02

Fill in pKd for record RBBP5 390-467 (protein) DEELEDSKALLYLPIAPEVEDPEENPYGPPPDAVQTSLMDEGASSEKKRQSSADGSQPPKKKPKTTNIELQGVPNDEV 4.76

Fill in pKd for record RBBP5 C-terminal construct (390–480) (domain or fragment, human, UniProt Q15291 390-480, looked up, RBBP5, human, residues 390-480; also called RBBP5_(390–480); source: Rosetta cells, purified (Ni-NTA, on-beads Ulp1 digestion, SEC)) DEELEDSKALLYLPIAPEVEDPEENPYGPPPDAVQTSLMDEGASSEKKRQSSADGSQPPKKKPKTTNIELQGVPNDEVHPLLGVKGDGKSK 5.12

Fill in pKd for record RBBP5 404-538 (protein) IAPEVEDPEENPYGPPPDAVQTSLMDEGASSEKKRQSSADGSQPPKKKPKTTNIELQGVPNDEVHPLLGVKGDGKSKKKQAGRPKGSKGKEKDSPFKPKLYKGDRGLPLEGSAKGKVQAELSQPLTAGGAISELL 4.22

Fill in pKd for record RBBP5_(393–480) construct (domain or fragment, human, UniProt Q15291 393-480, looked up, RBBP5, human, residues 393-480; source: Rosetta cells, purified (Ni-NTA, on-beads Ulp1 digestion, SEC)) LEDSKALLYLPIAPEVEDPEENPYGPPPDAVQTSLMDEGASSEKKRQSSADGSQPPKKKPKTTNIELQGVPNDEVHPLLGVKGDGKSK 4.69
